Experiment: Aqueous solubility
Conditions: aqueous solubility
Items are presented alongside their recorded Solub..

// below: answered compounds
>  <compound string>
CCn1c(=O)c2cc(F)ccc2n2c(=S)[nH]nc12

>  <metric name>
Solub.

>  <value>
>39 µg/mL

$$$$
>  <compound string>
O=C(NCCCn1c(=O)c2cc(F)ccc2n2c(=S)[nH]nc12)C1CCCC1

>  <metric name>
Solub.

>  <value>
>58 µg/mL

$$$$
>  <compound string>
CC(=O)NCCn1c(=O)c2cc(F)ccc2n2c(=S)[nH]nc12

>  <metric name>
Solub.

>  <value>
>47 µg/mL

$$$$
>  <compound string>
O=c1c2cc(F)ccc2n2c(=S)[nH]nc2n1CCCc1ccccc1

>  <metric name>
Solub.

>  <value>
<1 µg/mL

$$$$
>  <compound string>
COc1ccccc1CC(=O)NCCCn1c(=O)c2cc(F)ccc2n2c(=S)[nH]nc12

>  <metric name>
Solub.

>  <value>
>65 µg/mL

$$$$

Switching to the query record.
Input line: GET /values?readout=Solub.&item= "CCOP(=O)(CCn1c(=O)c2cc(F)ccc2n2c(=S)[nH]nc12)OCC"
Output line: >59 µg/mL

----------
metric name: PAMPA (×10⁻⁶ cm/s)

>  <compound string>
O=c1c2cc(F)ccc2n2c(=S)[nH]nc2n1CCN1CCCCC1

>  <metric name>
PAMPA

>  <value>
358

$$$$

I: CN(C)c1ccc2c(c1)c(=O)n(CCc1ccccc1)c1n[nH]c(=S)n21
II: CC(C)(C)OC(=O)N1CC(CCn2c(=O)c3cc(F)ccc3n3c(=S)[nH]nc23)C1
Input line: Higher PAMPA: I or II ? API: response body contains the label of the selected item.
Output line: I

a: O=c1c2cc(F)ccc2n2c(=S)[nH]nc2n1CCc1ccccn1
b: O=c1c2cc(F)ccc2n2c(=S)[nH]nc2n1CC1CC1
Input line: Higher PAMPA: a or b ? API: response body contains the label of the selected item.
Output line: a

----------
Experiment: Microsomal metabolic stability, rat liver microsomes (RLM)
Settings: rat liver microsomes
metric name: t1/2 (min, RLM)

// below: answered compounds
>  <compound>
O=c1c2cc(F)ccc2n2c(=S)[nH]nc2n1CCN1CCCCC1 [compound 88]

>  <t1/2 (min, RLM)>
>30 min

$$$$
>  <compound>
O=c1c2cc(F)ccc2n2c(=S)[nH]nc2n1CCc1ccc(Cl)cc1 [compound 82]

>  <t1/2 (min, RLM)>
>30 min

$$$$
>  <compound>
CC(C)(C)OC(=O)NC1CCC(C(=O)NCCCn2c(=O)c3cc(F)ccc3n3c(=S)[nH]nc23)CC1 (stereo not drawn) [compound 110]

>  <t1/2 (min, RLM)>
24.8 min

$$$$
>  <compound>
CC(=O)NCCCn1c(=O)c2cc(F)ccc2n2c(=S)[nH]nc12 [compound 73]

>  <t1/2 (min, RLM)>
>30 min

$$$$
>  <compound>
O=C(NCCCn1c(=O)c2cc(F)ccc2n2c(=S)[nH]nc12)C1CCCNC1 (stereo not drawn) [compound 113]

>  <t1/2 (min, RLM)>
>30 min

$$$$

Input line: GET /values?readout=t1/2 (min, RLM)&item= O=C(NCCCn1c(=O)c2cc(F)ccc2n2c(=S)[nH]nc12)c1ccc(Cn2ccnc2)cc1 [compound 119]
Output line: >30 min

Input line: GET /values?readout=t1/2 (min, RLM)&item= O=C(CC1CCNCC1)NCCCn1c(=O)c2cc(F)ccc2n2c(=S)[nH]nc12 [compound 116]
Output line: >30 min

Input line: GET /values?readout=t1/2 (min, RLM)&item= C[C@H]1C[C@@H]1n1c(=O)c2cc(F)ccc2n2c(=S)[nH]nc12 [compound 80]
Output line: >30 min

Input line: GET /values?readout=t1/2 (min, RLM)&item= CC(CN(C)C)n1c(=O)c2cc(F)ccc2n2c(=S)[nH]nc12 (stereo not drawn) [compound 71]
Output line: >30 min

Input line: GET /values?readout=t1/2 (min, RLM)&item= CC(C)(C)OC(=O)N1CCN(CCn2c(=O)c3cc(F)ccc3n3c(=S)[nH]nc23)CC1 [compound 92]
Output line: 26.3 min

Input line: GET /values?readout=t1/2 (min, RLM)&item= CC(C)(C)OC(=O)CC[C@@H](NC(=O)OC(C)(C)C)C(=O)NCCCn1c(=O)c2cc(F)ccc2n2c(=S)[nH]nc12 [compound 102]
Output line: 25.1 min

Input line: GET /values?readout=t1/2 (min, RLM)&item= O=c1c2cc(F)ccc2n2c(=S)[nH]nc2n1CCN1CCC(F)(F)CC1 [compound 89]
Output line: >30 min
